Value source: patent US20230134571A1

Please provide measured IC50 (µg/ml) with constrains for the entries that follow.
target: HIV Env of isolate CNE58 (clade BC) (HIV); test: cell-based or functional assay
Unit µg/mL implied. Number only.

Please fill in: IC50 (µg/ml) with constrains reported for ePGDM9 (antibody, V domains shown) VH: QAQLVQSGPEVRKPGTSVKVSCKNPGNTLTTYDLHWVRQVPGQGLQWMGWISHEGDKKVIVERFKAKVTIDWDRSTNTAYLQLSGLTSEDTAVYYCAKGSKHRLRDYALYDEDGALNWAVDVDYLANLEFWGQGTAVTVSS VL: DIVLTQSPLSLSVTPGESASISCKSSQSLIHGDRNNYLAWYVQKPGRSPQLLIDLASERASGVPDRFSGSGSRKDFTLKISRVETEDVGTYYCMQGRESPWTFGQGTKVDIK = 0.002

The binder ePGDM5 (antibody, V domains shown) VH: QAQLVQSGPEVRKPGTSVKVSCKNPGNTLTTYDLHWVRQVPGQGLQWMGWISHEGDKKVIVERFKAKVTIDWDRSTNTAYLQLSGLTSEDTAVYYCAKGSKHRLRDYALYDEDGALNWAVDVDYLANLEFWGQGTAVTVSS VL: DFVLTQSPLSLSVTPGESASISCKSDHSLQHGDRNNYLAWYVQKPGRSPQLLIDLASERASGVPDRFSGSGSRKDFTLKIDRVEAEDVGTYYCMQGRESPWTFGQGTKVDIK showed IC50 (µg/ml) with constrains equal to 0.004

Noted for PGDM1400 (antibody, V domains shown) VH: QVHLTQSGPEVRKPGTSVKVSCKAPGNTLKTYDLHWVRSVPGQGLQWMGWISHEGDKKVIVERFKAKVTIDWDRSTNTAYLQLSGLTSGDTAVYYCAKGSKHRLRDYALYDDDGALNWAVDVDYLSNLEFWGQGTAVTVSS VL: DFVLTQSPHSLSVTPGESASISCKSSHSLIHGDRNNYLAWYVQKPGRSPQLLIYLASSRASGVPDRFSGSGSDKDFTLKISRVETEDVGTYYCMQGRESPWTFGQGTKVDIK : its IC50 (µg/ml) with constrains reads 0.003

Reported IC50 (µg/ml) with constrains of ePGDM13 (antibody, V domains shown) VH: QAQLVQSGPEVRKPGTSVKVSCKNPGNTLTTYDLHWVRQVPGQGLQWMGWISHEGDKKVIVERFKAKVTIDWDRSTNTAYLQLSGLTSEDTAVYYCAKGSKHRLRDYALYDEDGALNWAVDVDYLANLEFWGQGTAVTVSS VL: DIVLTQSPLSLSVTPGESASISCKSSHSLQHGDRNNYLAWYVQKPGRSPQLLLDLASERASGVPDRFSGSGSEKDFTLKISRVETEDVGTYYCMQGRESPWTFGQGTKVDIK : 0.003
